Molecular target: cleaved soluble TMPRSS2^S441A (TMPRSS2^S441A-Cl) (human, UniProt O15393 107-255; O15393 256-492, S441A)
Sequence (O15393 107-255, chain 1 of 2): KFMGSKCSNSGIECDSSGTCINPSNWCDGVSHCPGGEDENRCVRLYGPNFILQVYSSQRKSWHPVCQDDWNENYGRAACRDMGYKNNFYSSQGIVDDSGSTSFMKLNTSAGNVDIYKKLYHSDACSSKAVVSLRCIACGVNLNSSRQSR
Sequence (O15393 256-492 S441A, chain 2 of 2): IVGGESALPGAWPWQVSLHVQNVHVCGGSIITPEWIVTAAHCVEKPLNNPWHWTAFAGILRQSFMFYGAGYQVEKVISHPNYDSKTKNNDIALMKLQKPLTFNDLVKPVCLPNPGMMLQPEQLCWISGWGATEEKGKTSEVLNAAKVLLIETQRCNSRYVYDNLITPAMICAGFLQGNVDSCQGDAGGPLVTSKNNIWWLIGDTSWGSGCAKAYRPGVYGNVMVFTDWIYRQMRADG
Assay: BLI

binder: HKU1B RBD (residues 330-614) K487A (domain or fragment) DNWLNNVSVPSPLNWERRIFSNCNFNLSTLLRLVHVDSFSCNNLDKSKIFGSCFNSITVDKFAIPNRRRDDLQLGSSGFLQSSNYKIDISSSSCQLYYSLPLVNVTINNFNPSSWNRRYGFGSFNLSSYDVVYSDHCFSVNSDFCPCADPSVVNSCAASKPPSAICPAGTKYRHCDLDTTLYVKNWCRCSCLPDPISTYSPNTCPQKKVVVGIGEHCPGLGINEEKCGTQLNHSSCFCSPDAFLGWSFDSCISNNRCNIFSNFIFNGINSGTTCSNDLLYSNTEI
binding result: binds

Data provenance: paper doi:10.1101/2024.02.21.581378
